assay: qHTS assay for identifying genotoxic compounds that show differential cytotoxicity against isogenic chicken DT40 cell lines with known DNA damage response pathways - Rad54/Ku70 mutant cell line (AID 743015); conditions: DT40 Rad54/Ku70 mutant viability, CellTiter-Glo, 40 h; series mostly up to 66.8 µM; also: nearly all actives have a fitted effect of over 60% in size
Records with an inconclusive call do not appear. The source made the active and inactive calls. Calls follow the shape of the dose curve; as a rule, active = well fitted cell-killing curve with a large enough effect in the repeat runs; inconclusive = weak or mixed curves; inactive = no such curve, though single readings can be large or run the other way.
Classes used: 1 (yes) (active), 0 (no) (inactive)

{"Compound": "OCC(O)CN1CCN(c2ccccc2)CC1 (stereo not given)", "Category": "0 (no)"}
{"Compound": "CCOc1cccc(N)c1", "Category": "0 (no)"}
{"Compound": "O=Cc1cc2ccccc2o1", "Category": "0 (no)"}
{"Compound": "CN(C)C(C)(C)CO", "Category": "0 (no)"}
{"Compound": "COP(=O)(O)OP(=O)(O)OC", "Category": "0 (no)"}
{"Compound": "CC1(C)O[C@H]2CC(=O)OC[C@]23[C@H]2CC[C@@]4(C)[C@H](c5ccoc5)OC(=O)[C@H]5O[C@]54[C@]2(C)C(=O)C[C@@H]13", "Category": "0 (no)"}
{"Compound": "OC[C@@H](O)C(O)[C@@H](O)CO (stereo not given in full)", "Category": "0 (no)"}
{"Compound": "CC(C)CCOC(=O)c1ccccc1", "Category": "0 (no)"}
{"Compound": "CCn1cc(C(=O)O)c(=O)c2cnc(N3CCCC3)nc21", "Category": "0 (no)"}
{"Compound": "CC(=O)C1C(=O)C=C(C)OC1=O (stereo not given)", "Category": "0 (no)"}
{"Compound": "CC1(C)Cc2cccc(N)c2O1", "Category": "0 (no)"}
{"Compound": "O=C(O)[C@H](O)c1ccccc1", "Category": "0 (no)"}
{"Compound": "OCC1(CO)COCOC1", "Category": "0 (no)"}
{"Compound": "COc1ccc(CCO)cc1", "Category": "0 (no)"}
{"Compound": "CC1c2ccccc2CN1NC(=O)c1ccc(Cl)c(S(N)(=O)=O)c1 (stereo not given)", "Category": "0 (no)"}
{"Compound": "CN(C)CCCO[C@@H]1[C@H]2OC(C)(C)O[C@H]2O[C@@H]1C(O)CO (stereo not given in full)", "Category": "0 (no)"}
{"Compound": "CC1=C(O)C(=O)C(C)O1 (stereo not given)", "Category": "0 (no)"}
{"Compound": "CC1(C)Oc2ccc(C#N)cc2[C@@H](N2CCCC2=O)[C@@H]1O", "Category": "0 (no)"}
{"Compound": "O/N=C/C=N/O", "Category": "0 (no)"}
{"Compound": "CCC/C=C(\\C=O)CC", "Category": "0 (no)"}
{"Compound": "CC(=O)CC(=O)OC(C)(C)C", "Category": "0 (no)"}
{"Compound": "CCCC(=O)OC/C=C(\\C)CCC=C(C)C", "Category": "0 (no)"}
{"Compound": "COc1ccc2c(c1)c1c3n2CCN(C)C3=NCC1", "Category": "1 (yes)"}
{"Compound": "CC1=C(C(=O)O)N2C(=O)[C@@H](NC(=O)[C@H](N)C3=CCC=CC3)[C@H]2SC1", "Category": "0 (no)"}
{"Compound": "C=CCCCCCCCCC(=O)OCCCC", "Category": "0 (no)"}
{"Compound": "CC/C(C)=N\\O[Si](C)(O/N=C(\\C)CC)O/N=C(\\C)CC", "Category": "0 (no)"}
{"Compound": "CN(C)CC/C=C1/c2ccccc2COc2ccc(CC(=O)O)cc21", "Category": "0 (no)"}
{"Compound": "CC1=NN(c2ccc(S(=O)(=O)O)cc2)C(=O)C1", "Category": "0 (no)"}
{"Compound": "CC(C)Nc1ccccc1", "Category": "0 (no)"}
{"Compound": "NCCOCCN", "Category": "0 (no)"}
{"Compound": "CCC(C)OC(C)CC (stereo not given)", "Category": "0 (no)"}
{"Compound": "C[C@H]1[C@@H](c2ccccc2)NC(=O)N1C", "Category": "0 (no)"}
{"Compound": "NCc1ccc(S(N)(=O)=O)cc1", "Category": "0 (no)"}
{"Compound": "CN1C[C@@H]2C[C@H]1CN2c1cc2c(cc1F)c(=O)c(C(=O)O)cn2C1CC1", "Category": "1 (yes)"}
{"Compound": "O=C=NCC1CCCC(CN=C=O)C1 (stereo not given)", "Category": "0 (no)"}
{"Compound": "CO/N=C(/C(=O)N[C@@H]1C(=O)N2C(C(=O)[O-])=C(C[n+]3ccn4ncccc43)CS[C@H]12)c1nsc(N)n1", "Category": "0 (no)"}
{"Compound": "Cc1c(N)cccc1Cl", "Category": "0 (no)"}
{"Compound": "O=C(O)CCCCCC(=O)O", "Category": "0 (no)"}
{"Compound": "Fc1ccccc1", "Category": "0 (no)"}
{"Compound": "c1ccc(B(c2ccccc2)c2ccccc2)cc1", "Category": "0 (no)"}

* * *

target: Cytochrome P450 3A4 (Homo sapiens) (UniProt P08684); experiment: Cytochrome P450 Family 3 Subfamily A Member 4 (CYP3A4) small molecule antagonists: luciferase reporter qHTS assay (AID 1671201); conditions: P450-Glo CYP3A4 enzyme, luciferin luminescence, 1 h; series mostly up to 115 µM; also: % is scaled to controls: 0 for no effect and ±100 for the full control effect; nearly all actives have a fitted effect of over 50% in size
Sequence (P08684 whole entry, looked up): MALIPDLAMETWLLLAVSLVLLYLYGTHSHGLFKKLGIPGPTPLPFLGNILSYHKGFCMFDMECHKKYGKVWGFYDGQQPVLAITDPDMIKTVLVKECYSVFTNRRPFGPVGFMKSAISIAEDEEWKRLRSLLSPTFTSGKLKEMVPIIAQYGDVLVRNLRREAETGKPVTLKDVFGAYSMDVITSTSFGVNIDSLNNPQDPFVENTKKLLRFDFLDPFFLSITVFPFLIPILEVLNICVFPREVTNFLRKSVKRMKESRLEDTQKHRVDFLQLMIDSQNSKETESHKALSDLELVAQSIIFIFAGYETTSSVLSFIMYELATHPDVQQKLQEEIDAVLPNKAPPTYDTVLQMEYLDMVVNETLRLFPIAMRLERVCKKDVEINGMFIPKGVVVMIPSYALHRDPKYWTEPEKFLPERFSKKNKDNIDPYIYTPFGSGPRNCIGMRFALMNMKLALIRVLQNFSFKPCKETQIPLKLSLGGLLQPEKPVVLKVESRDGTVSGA
Records with an inconclusive call do not appear. Active and inactive are the calls of the source. Calls come from the whole dose curve; as a rule, active = well fitted inhibition curve with a large enough effect in the repeat runs; inconclusive = weak or mixed curves; inactive = no such curve, though single readings can be large or run the other way.

{"Compound": "Nc1nnnn1-c1ccccc1", "Target Of Assay": "Cytochrome P450 3A4 (Homo sapiens) (UniProt P08684)", "outcome": "inactive"}
{"Compound": "CC(O)CC(C)O (stereo not drawn)", "Target Of Assay": "Cytochrome P450 3A4 (Homo sapiens) (UniProt P08684)", "outcome": "inactive"}
{"Compound": "O=C(O)[C@H](O)c1ccccc1", "Target Of Assay": "Cytochrome P450 3A4 (Homo sapiens) (UniProt P08684)", "outcome": "inactive"}

* * *

Assay: qHTS assay for small molecule disruptors of the mitochondrial membrane potential (AID 720635)
Conditions: HepG2 mitochondrial membrane potential, Mito-MPS dye ratio; series mostly up to 83.2 µM
Text: U.S. Tox21 Program National Center for Advancing Translational Sciences [NCATS] NIH Chemical Genomics Center [NCGC] U.S. Environmental Protection Agency [EPA] National Institutes of Environmental Health Sciences [NIEHS] National Toxicology Program [NTP] U.S. Food and Drug Administration [FDA] […] The dye accumulates in the mitochondria of healthy cells as aggregates, with red fluorescence. […]
Inconclusive results are not listed. Calls of active or inactive are those of the source. Calls come from the whole dose curve; as a rule, active = well fitted inhibition curve with a large enough effect in the signal ratio in the repeat runs; inconclusive = weak or mixed curves, or effect the other way; inactive = flat fitted curve, though single readings scatter; the % refers to the signal ratio.
Classes used: active, inactive

{"Compound": "CCNC(=O)NCc1cccc(Cl)c1", "Category": "inactive"}
{"Compound": "CC(=O)C(C)O (centres undefined)", "Category": "inactive"}
{"Compound": "COS(=O)(=O)O", "Category": "inactive"}
{"Compound": "Cc1ccc2c(c1)C(=O)c1ccccc1C2=O", "Category": "active"}
{"Compound": "O=C(Cn1ccnc1[N+](=O)[O-])NCc1ccccc1", "Category": "inactive"}
{"Compound": "Cc1ncc([N+](=O)[O-])n1CC(C)O (centres undefined)", "Category": "inactive"}
{"Compound": "COC(=O)c1cccc(Cl)c1", "Category": "inactive"}
{"Compound": "N#Cc1cscn1", "Category": "inactive"}
{"Compound": "CC(=O)CCC1=C(C)CCCC1(C)C", "Category": "inactive"}

* * *

assay: qHTS assay to test for compound auto fluorescence at 460 nm (blue) in HepG2 cell free culture (AID 720685); conditions: Cell-free culture medium, blue autofluorescence 405/460 nm; series mostly up to 91.3 µM; also: % is scaled to controls: 0 for no effect and ±100 for the full control effect
The source made the active and inactive calls. Calls come from the whole dose curve; as a rule, active = well fitted curve in the direction sought with a large enough effect in the repeat runs; inconclusive = weak or mixed curves; inactive = flat fitted curve, though single readings scatter.
Property: fluorescence, % of fluorescent control

{"Compound": "C=CC(=O)OCC1CCCO1 (centres undefined)", "Property": "fluorescence, % of fluorescent control", "Result": "inactive"}
{"Compound": "CCCCCC(C)O (centres undefined)", "Property": "fluorescence, % of fluorescent control", "Result": "inactive"}
{"Compound": "CCO[Si](CC)(OCC)OCC", "Property": "fluorescence, % of fluorescent control", "Result": "inactive"}
{"Compound": "O=[N+]([O-])c1c(Cl)cc(Cl)cc1Cl", "Property": "fluorescence, % of fluorescent control", "Result": "inactive"}

* * *

experiment: qHTS RealTime-Glo MT Cell Viability Assay in HEK293 cells - 40 hour (AID 1224874); conditions: RealTime-Glo luminescence; stronger effect = lower value; also: % is scaled to controls: 0 for no effect and ±100 for the full control effect; nearly all actives have a fitted effect of over 50% in size
Results filed as inconclusive are left out.
Property: max response (%)

{"Molecule": "Cc1c(N)cccc1Cl", "Result": 5.05}
{"Molecule": "CC(=O)CCC1=C(C)CCCC1(C)C", "Result": -7.96}
{"Molecule": "O=C1c2ccccc2C(=O)c2cc(Cl)ccc21", "Result": 3.12}
{"Molecule": "CCC(C)OC(C)CC (stereo not drawn)", "Result": -6.97}
{"Molecule": "C=CCN1C[C@H](C(=O)N(CCCN(C)C)C(=O)NCC)C[C@@H]2c3cccc4[nH]cc(c34)C[C@H]21", "Result": 0.226}
{"Molecule": "CC(=O)c1cc(C)oc1C", "Result": -0.494}
{"Molecule": "O=C1OCCO1", "Result": 1.36}
{"Molecule": "O=C1NC(c2ccccc2)(c2ccccc2)C(=O)N1COP(=O)(O)O", "Result": -5.37}

Measured values drawn from PubChem BioAssay (Tox21) for this set.
